In this section, each of the molecules is paired with its reported Ki.
subject of test: BRD4 (BDI_K57-E168) (Homo sapiens (Human))
assay notes: TR-FRET bromodomain binding assay, BRD4 first bromodomain
condition: His-tagged BD1, 100 nM Alexa647 probe
Give a bare numeral; the unit nM is implied.

Can you share its Ki? I mean this molecule: "Cc1[nH]c(-c2ccccc2OCCN2CCOCC2)c2c1C(=O)CCC2"
1040

Can you share its Ki? I mean this molecule: Cc1[nH]c(-c2ccccc2Oc2ccccc2)c2c1C(=O)CC(C)C2 (stereo not drawn)
184

Can you share its Ki? I mean this molecule: "Cc1[nH]c(-c2ccc(Cl)cc2)c2c1C(=O)CCC2"
7290

Further cases:
Can you share its Ki? I mean this molecule: "Cc1[nH]c(-c2cccc(NS(C)(=O)=O)c2)c2c1C(=O)CC(C)(C)C2"
576

Can you share its Ki? I mean this molecule: "Cc1[nH]c(-c2ccccc2OCC2CCCC2)c2c1C(=O)CCC2"
1250

Can you share its Ki? I mean this molecule: "Cc1[nH]c(-c2ccccc2OCc2ccccc2)c2c1C(=O)CCC2"
943
